Tested on: carbapenemase producing K. pneumoniae
Assay: MIC by broth micro-dilution (CLSI), carbapenemase producing K. pneumoniae
Assay type: cell-based, Klebsiella pneumoniae
Conditions: Klebsiella pneumoniae, ATCCBAA1705, KPC-2 K. pneumoniae ATCC BAA-1705; read-out: MIC
measured.endpoint: MIC (µg/mL)

a = C[C@@H](NC(=O)CN(C)C=N)[C@H]1C(=O)N2C(C(=O)O)=C(S[C@@H]3CN[C@H](C(=O)N4CC[C@@H](N)C4)C3)[C@H](C)[C@H]12 [Example 229]
b = CNCC(=O)N[C@H](C)[C@H]1C(=O)N2C(C(=O)O)=C(SC3CN(C4=NCCS4)C3)[C@H](C)[C@H]12 [Example 256]
Select the item whose MIC value is smaller, choosing between a and b . Your answer should be the label attached to the chosen record.
b

Reference source: patent US11180504B2
